# study-target: Nuclear receptor subfamily 0 group B member 1 (Homo sapiens)
# experiment-notes: DAX1 (NR0B1) inhibitors, primary screen, cell-based, HEK293, Gal4-DAX1, luciferase luminescence (AID 504766);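 note: inhibition shows as a rise in luminescence from relieved DAX1 repression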
# assay-setup: HEK293 Gal4-DAX1 luciferase reporter, at 6.75 µM
Among all 340,000 compounds or so, about 3,400 (1%) were called active.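 Rule for the calls: active = inhibition above the mean over all tested compounds plus 3 SD (cut at about 4.2% in these data); inactive = the rest.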 Only a selection was taken, and actives are over-represented in it overall.
The categories you may choose from are active, inactive

query: Any idea what this test logged for CC1(C)CC(=O)NC=C(c2ccccc2)C1 ?
result: inactive

query: Status in this test for O=C(Nc1ccc(C2CC2(Cl)Cl)cc1)c1cccc([N+](=O)[O-])c1 (stereo unspecified) ?
result: active

query: Identify the outcome logged in this assay for the compound shown: OCC1OC(n2cnc3c(N4CCCC4)ncnc32)C(O)C1O (stereo unspecified)
result: inactive

query: Tell me the recorded outcome of this test for CCc1ccccc1NC(=O)CN1CCN(C(=O)c2cc(C3CC3)nn2-c2ccccc2)CC1 .
result: inactive

query: So what was the verdict on CCCCCCn1c(=O)n2n(c1=O)C[C@]1(OC(=O)NCc3ccc(OC)c(OC)c3)CN(S(=O)(=O)c3ccc(C)cc3)C[C@]1(O)C2 in this test?
result: inactive

query: Hi, do you know how Cc1ccc(S(=O)(=O)N2CCC(C(=O)N3CCCCCCC3)CC2)cc1 came out in this test?
result: inactive

query: Hello, I am checking results. What call was entered for CCc1cccc(CC)c1N1C(=O)CC(Sc2ccccc2N)C1=O (stereo unspecified) ?
result: inactive

query: Identify the outcome logged in this assay for the compound shown: COC(=O)C[C@H]1C[C@@H]2c3cc(NC(=O)Nc4ccccc4)ccc3O[C@@H]2[C@@H](CO)O1
result: inactive

query: So what was the verdict on C[C@H]1CN([C@@H](C)CO)C(=O)c2cc(-c3cccc(F)c3)cnc2O[C@@H]1CN(C)S(C)(=O)=O in this test?
result: inactive

query: Recorded call for CN(Cc1ccccc1)C(=O)c1ccc(COc2ccccc2)cc1 ?
result: inactive

query: Short answer needed: outcome of this test for O=C(Nc1ccc(S(=O)(=O)N2CCCCC2)cc1)C1CC(=O)N(c2ccc(F)cc2)C1 (stereo unspecified) ?
result: inactive

query: // param item: C[C@H](CO)N1C[C@H](C)[C@@H](CN(C)Cc2ccc3c(c2)OCO3)OCc2cnnn2CCCC1=O ; yields the recorded call
result: inactive

query: Assay outcome for CNS(=O)(=O)c1ccc(NC(=O)C2CC(=O)N(c3ccc(Cl)cc3)C2)cc1 (stereo unspecified) : what was it?
result: active

query: Can you look up the reported call for COC(=O)C(C)NC(=O)COc1ccc2ccccc2c1 (stereo unspecified) for me?
result: active

query: Field: outcome | Entry: FC(F)(F)c1cccc(Cc2noc(CN3CCC(N4CCCCC4)CC3)n2)c1
result: inactive

query: What was the test verdict on Cc1cc(Cl)ccc1C(=O)C1CCCN(C(=O)c2ccc3c(c2)OCO3)C1 (stereo unspecified) ?
result: inactive

query: Hey, what did the test say about Cn1c(CSCC(=O)Nc2ccccc2)nnc1SCc1ccccc1 ?
result: inactive

query: Just curious, what result did O=C(c1ccco1)N1CCN(CCOc2ccccc2)CC1 get here?
result: inactive

query: Called result for O=C(Nc1ccc(Cl)cn1)c1ccccc1-c1ccccc1
result: inactive

query: Call for entry O=C(Nc1cccc([N+](=O)[O-])c1)c1ccc2c(c1)OCO2 :
result: inactive

query: Give the logged outcome of this assay for the following compound: NC(=O)C1CCCN(CC(=O)N2CCN(c3ccccc3)CC2)C1 (stereo unspecified)
result: active

query: Recorded test outcome, item C[C@@H]1CN([C@@H](C)CO)S(=O)(=O)c2ccc(-c3ccc(C(=O)N(C)C)cc3)cc2O[C@@H]1CN(C)Cc1ccccc1C(=O)O
result: inactive

query: In this assay, the call recorded for O=C(CSCc1ccccc1)Nc1ccccc1 was what?
result: active

query: In this assay, the call recorded for COc1ccc(N2CCN(C(=O)C3CCN(C(=O)c4ccccc4Cl)CC3)CC2)cc1 was what?
result: inactive

query: Any idea what this test logged for COc1ccc(/C=C2\SC(=S)N(CCC(=O)N3CCOCC3)C2=O)cc1OC ?
result: inactive

query: Could you please tell me the result logged for N#CC1(Nc2ccc3c4c(cccc24)CC3)CCCCC1 in this assay?
result: inactive

query: Tell me the assay call for COc1ccc(N2CCN(C(=O)C3CCN(S(=O)(=O)c4ccc(C)cc4)CC3)CC2)cc1 please.
result: active

query: Returns: the outcome recorded for O=C(C1CCC1)N1CCN(c2ccccc2)CC1 in this assay.
result: inactive

query: Hi, sorry to bother you, what did the test record for CC1(C)CC(=O)C(C2c3ccccc3S(=O)(=O)c3ccccc32)C(=O)C1 ?
result: active

query: What did the test return for CSc1ncnc2c1ncn2CCCNCC1CCCCC1 ?
result: inactive

query: For Cc1ccc(N2CC(C(=O)Nc3ccc(S(=O)(=O)N4CCCC4)cc3)CC2=O)cc1C (stereo unspecified) , which call appears in the assay record?
result: inactive

query: Name the outcome recorded for Cc1cccc(NC(=O)Nc2ccc3c(c2)OCO3)n1 in the assay.
result: inactive

query: Each compound tested received a call. Report the one for O=C(C[C@H]1C[C@@H]2c3cc(NC(=O)C4CCC4)ccc3O[C@@H]2[C@H](CO)O1)NC1CCCCC1 .
result: inactive

query: // outcome(item) with item = COc1cccc(OCC(=O)NCCS(=O)(=O)N2CCN(c3ccccc3)CC2)c1
result: inactive

query: Outcome? CN1CCn2cnc(C(=O)NCC(=O)OC(C)(C)C)c2C1=O
result: inactive

query: Please state the recorded outcome for this compound: CCn1c(=O)c(=O)n(CC)c2cc(S(=O)(=O)N3CCc4ccccc43)ccc21
result: inactive

query: Per the assay record, what outcome was assigned to Cc1cn([C@H]2C[C@H](O)[C@@H](CNC(=O)[C@H](N)Cc3cccnc3)O2)c(=O)[nH]c1=O ?
result: inactive

query: In this assay, the call recorded for Cc1cc(C)nc(NC(=O)c2cccc([N+](=O)[O-])c2)c1 was what?
result: inactive

query: Can you look up the reported call for C[C@H]1CN([C@@H](C)CO)C(=O)CCCn2cc(nn2)CO[C@@H]1CN(C)S(=O)(=O)c1cccc(C#N)c1 for me?
result: inactive

query: Tell me the assay call for Nc1cccc(OCCCCCOc2cccc(N)c2)c1 please.
result: inactive

query: Could you please tell me the result logged for C[C@@H]1CN([C@@H](C)CO)C(=O)CCCn2cc(nn2)CO[C@H]1CN(C)S(=O)(=O)c1ccc(-n2cccn2)cc1 in this assay?
result: inactive
